Test system: MDA-N
Assay Method Text: NCI tumour cell line growth inhibition, 48 h
Endpoint: TGI (µM)
# number only, unit µM dropped from output

Compound: Cc1nc2ccc(F)cc2c2c1CCN2c1ccc(Cl)cc1
Target Entity: MDA-N
TGI [µM]: 21.7
--
Compound: CCOC(=O)/C=C(\C(=O)OCC)n1ccc(=O)n(Cc2cn(CCCCOC(C)=O)nn2)c1=O
Target Entity: MDA-N
TGI [µM]: 42.6

Recorded TGI of CC1OC(OC2C(OC(=O)[C@]34CCC(C)(C)C[C@H]3C3=CC[C@@H]5[C@@]6(C)CC[C@H](OC7OC(CO)C(O)C(O)C7OC7OC(CO)C(O)C(O)C7O)C(C)(C)[C@@H]6CC[C@@]5(C)[C@]3(C)CC4)OCC(O)C2O)C(O)C(OC2OCC(O)C(O)C2O)C1OC1OCC(O)C(OC2OCC(O)C(O)C2O)C1O (stereo partly drawn) , please.
5.77
